# Tested on: Bacillus subtilis
# METHOD_SUMMARY: cleaved RNA product abundance (RNA/gDNA barcode ratio) relative to median wild-type variant (ratio to wild type); higher = more accumulation of the downstream cleavage product
# TEST_PARAMETERS: experiment (reporter, strain, medium): exp 2b: truncated aprE reporter, strain BJT200; cleavage site: cggR-gapA (positions -7 to +36 mutated)
Reported cleaved RNA product abundance values for the following sequences.

ACAGACGAAGGAGCCGCAAAGAAGTTATTAAGGGATGAATAATCCCTCAAATATAAATATCTCTCACTTATTTAA : 0.38
ACAGACGAAGGAGCCGCAAAGAAGTTATTACGGGATGAATAATCCCTCAATATAAATATCTCTCACTTATTTAAA : 0.32
ACAGACGAAGGAGCCGCAAAGAAGTTATTAAGGGATGAATAAACCCTGAATATAAATATCTCTCACTTATTTAAA : 0.303
ACAGACGAAGGAGCCGCAAAGAAGTTATTAAGGGATGAATACTTCCTCAATATAAATATCTCTCACTTATTTAAA : 0.156
ACAGACGAAGGAGCCGCAATGAAGTTATTAAGGGATGAATAAACCCTCAATATAAATATCTCTCACTTATTTAAA : 0.647
ACAGACGAAGGAGCCGCAAAGAAGTTATTAGGGGAAGAATAATCCCTCAATATAAATATCTCTCACTTATTTAAA : 0.278
ACAGACGAAGGAGCCGCAAAGAAGTTATTAAGGCATGAATAATCCCTTAATATAAATATCTCTCACTTATTTAAA : 0.411
ACAGACGAAGGAGCCGCACAGAAGTGATTAAGGGATGAATAATCCCTCAATATAAATATCTCTCACTTATTTAAA : 0.259
ACAGACGAAGGAGCCGCTAAGAAGTTATTAAGGGATGAATAAACCCTCAATATAAATATCTCTCACTTATTTAAA : 0.537
ACAGACGAAGGAGCCGCAATTAAGTTATTAAGGGATGAATAATCCCTCAATATAAATATCTCTCACTTATTTAAA : 0.955

**Query** So what does the record say about cleaved RNA product abundance for `ACAGACGAAGGAGCCGCAAAGAAGTTATTAAGGGATGAATAATCTCTCAATATAAATATCTCTCACTTATTTAAA` ?
**Result** 0.688

**Query** So what does the record say about cleaved RNA product abundance for `ACAGACGAAGGAGCCGCAAAGAAGTTATTAACGGATGAATAATCCCTCAATATAAAAATCTCTCACTTATTTAAA` ?
**Result** 0.156

**Query** So what does the record say about cleaved RNA product abundance for `ACAGACGAAGGAGCCGCAAAGAAGTTATTAAGGATTGAATAATCCCTCAATATAAATATCTCTCACTTATTTAAA` ?
**Result** 0.217

**Query** So what does the record say about cleaved RNA product abundance for `ACAGACGAAGGAGCCGCAAAGAAGTTCTTAAGGGATAAATAATCCCTCAATATAAATATCTCTCACTTATTTAAA` ?
**Result** 0.104

**Query** So what does the record say about cleaved RNA product abundance for `ACAGACGAAGGAGCCGCAAAGAAGTTATTAATGGATGTATAATCCCTCAATATAAATATCTCTCACTTATTTAAA` ?
**Result** 0.0434
